The measurements presented in this section are drawn from PubChem BioAssay (NCI).

system: K-562 leukemia; assay: NCI tumour cell line growth inhibition, 48 h; in the data active means GI50 below about 0.43 µM; inactive means the rest
Classes used: active, inactive

[[record]]
molecule = "CC(=O)O[C@@H]1C2CCC3C(CC[C@@]4(C)C3CC[C@@H]4C(C)N(C)C)[C@@]2(C)CC[C@@H]1NC(=O)C=C(C)C (some centres undefined)"
cat = "inactive"

[[record]]
molecule = "Clc1c(Cl)[n+](Cc2ccc3ccccc3c2)cn1Cc1ccc2ccccc2c1"
cat = "inactive"

[[record]]
molecule = "Cc1onc(-c2ccccc2)c1C(=O)N/N=C/c1cc(Cl)cc(Cl)c1O"
cat = "inactive"

[[record]]
molecule = "CCOC(=O)C1=CCCC[C@H]1S(=O)(=O)Nc1ccc(F)cc1Cl"
cat = "inactive"

[[record]]
molecule = "CC(C)(C)C(=O)OCOP(=O)(NCc1ccccc1)C1CCCN(O)C1=O (centres undefined)"
cat = "inactive"

[[record]]
molecule = "CNC(=O)c1c(C)oc2cc(Oc3ncnc4cc(OC)c(OC)cc34)ccc12"
cat = "inactive"

[[record]]
molecule = "O=C1N[C@@H]2[C@@H](O)[C@@H](O)[C@H](O)C[C@H]2c2cc3c(c(O)c21)OCCO3"
cat = "active"

[[record]]
molecule = "COc1ccc(/C=C\\c2cc(OC)c(OC)c(OC)c2)cc1OCC(=O)Nc1nc2ccc(F)cc2s1"
cat = "inactive"

[[record]]
molecule = "COc1ccc(Nc2nc3cc(N)cc(N)c3nc2-c2ccccc2)cc1"
cat = "inactive"


----------
tested on: MCF7 breast; assay: NCI tumour cell line growth inhibition, 48 h
measurement.type: TGI

[[record]]
compound = "CCOC(=O)C(C(=O)OCC)=C1SC(=Nc2ccccc2)C(=Nc2ccccc2)N1c1ccccc1"
measurement_type = "TGI"
measured_result = "> 100 µM"

[[record]]
compound = "CC1=NN(c2cccc(Cl)c2)C2(SCC(=O)N2c2nc3ccccc3s2)C1=CC=Cc1ccccc1 (configuration not stated)"
measurement_type = "TGI"
measured_result = "> 100 µM"

[[record]]
compound = "O=c1c2cc(-c3ccccc3)cnc2sn1-c1ccc(Br)cc1"
measurement_type = "TGI"
measured_result = "> 100 µM"

[[record]]
compound = "COc1ccc2c(c1)C(=O)c1c-2n(CCCN(C)C)c(=O)c2ccccc12"
measurement_type = "TGI"
measured_result = "2.31 µM"

[[record]]
compound = "CCOC(=O)C1=CCCC[C@H]1S(=O)(=O)Nc1ccc(F)cc1Cl"
measurement_type = "TGI"
measured_result = "> 100 µM"

[[record]]
compound = "C=C(c1ccc(OC)c(/C=C/C(=O)c2ccc3c(c2)OCO3)c1)c1cc(OC)c(OC)c(OC)c1"
measurement_type = "TGI"
measured_result = "> 100 µM"

[[record]]
compound = "CC(C)C[C@H](NC(=O)CNC(=O)c1cc(Cl)ccc1Cl)B(O)O"
measurement_type = "TGI"
measured_result = "> 52.4 µM"

[[record]]
compound = "CN[C@H]1CN(c2ccc3c(=O)c(C(=O)O)cn(-c4nccs4)c3n2)C[C@@H]1OC"
measurement_type = "TGI"
measured_result = "5.07 µM"

[[record]]
compound = "O=C(O)c1cc(-c2ccc3cc4c(cc3c2)OCO4)nc2ccccc12"
measurement_type = "TGI"
measured_result = "> 100 µM"

[[record]]
compound = "COC1/C=C(C)/C=C/C(C)/C=C/C(=O)OC(/C(C)=C/C=C(\\C)CNC(=O)[C@H](CO)NC=O)C(C)/C=C/C=C/C(OC)CC/C=C(C)/C=C/C1 (some centres not stated)"
measurement_type = "TGI"
measured_result = "> 1 µM"

[[record]]
compound = "COc1ccc(C2(Cl)c3ccccc3N(c3ccccc3)c3ccccc32)cc1"
measurement_type = "TGI"
measured_result = "1.9 µM"

[[record]]
compound = "COc1cc2c(c(OC)c1OC)-c1ccc(OC)c(=O)cc1C(NC(=O)COc1ccccc1)CC2 (configuration not stated)"
measurement_type = "TGI"
measured_result = "> 49.4 µM"

[[record]]
compound = "NS(=O)(=O)OC[C@H]1C[C@@H](Nc2ccnc3cc(-c4cccc(SC(F)(F)F)c4)nn23)[C@H](O)[C@@H]1O"
measurement_type = "TGI"
measured_result = "0.173 µM"

[[record]]
compound = "COc1ccc(Nc2nc3cc(N)cc(N)c3nc2-c2ccccc2)cc1"
measurement_type = "TGI"
measured_result = "28.1 µM"

[[record]]
compound = "CN(C)C(C1=C(O)C(c2ccccc2)N(c2ccccc2)C1=O)N1CCOCC1 (configuration not stated)"
measurement_type = "TGI"
measured_result = "> 10 µM"

[[record]]
compound = "Cc1nc([N+](=O)[O-])cn1-c1nc2ccccn2c1[N+](=O)[O-]"
measurement_type = "TGI"
measured_result = "> 100 µM"

[[record]]
compound = "Cc1cc(S(=O)(=O)NC2=NCc3nc4ccccc4n32)c(S)cc1Cl"
measurement_type = "TGI"
measured_result = "70.1 µM"

[[record]]
compound = "Cc1nn(CNc2ccccc2C(F)(F)F)c(=S)n1/N=C/c1cccc2cccnc12"
measurement_type = "TGI"
measured_result = "> 100 µM"

[[record]]
compound = "O=C1/C(=C/c2cccc(Cl)c2)CCCc2ccccc21"
measurement_type = "TGI"
measured_result = "27.4 µM"

[[record]]
compound = "CCOC(=O)Cc1c(C)c2cc(C(=O)c3ccccc3)c(O)cc2oc1=O"
measurement_type = "TGI"
measured_result = "63.9 µM"

[[record]]
compound = "CCc1cccc(C(C)C)c1NC(=O)C(=O)C1C(=O)Nc2ccccc2S1=O (configuration not stated)"
measurement_type = "TGI"
measured_result = "> 100 µM"

[[record]]
compound = "O=c1oc2ccc(I)cc2c(=O)n1-c1ccc(Br)cc1F"
measurement_type = "TGI"
measured_result = "9.22 µM"

[[record]]
compound = "O=c1ccc2ccc(OP(=O)(O)O)cc2o1"
measurement_type = "TGI"
measured_result = "> 100 µM"

[[record]]
compound = "COc1cc(C(=O)NC2CCc3cc(OC)c(OC)c(OC)c3-c3ccc(OC)c(=O)cc32)cc(OC)c1OC (configuration not stated)"
measurement_type = "TGI"
measured_result = "> 100 µM"

[[record]]
compound = "Cc1ccc(O)c(NC(=O)c2cccc(Nc3ccnc(C(F)(F)F)c3)c2)c1"
measurement_type = "TGI"
measured_result = "26.5 µM"

[[record]]
compound = "CC(=O)O[C@@H]1C[C@]2(C(=O)c3ccccc3)C(=O)C(=O)S[C@]12c1ccccc1"
measurement_type = "TGI"
measured_result = "> 100 µM"

[[record]]
compound = "Cc1cc(S(=O)(=O)Nc2n[nH]c(-c3ccc(Cl)cc3)n2)c(SSc2cc(Cl)c(C)cc2S(=O)(=O)Nc2n[nH]c(-c3ccc(Cl)cc3)n2)cc1Cl"
measurement_type = "TGI"
measured_result = "> 100 µM"

[[record]]
compound = "COc1ccc(C(=O)C(CN(C)C)CN(C)C)cc1"
measurement_type = "TGI"
measured_result = "12.3 µM"

[[record]]
compound = "CSC12c3cc(C)n(-c4ccc([N+](=O)[O-])cc4)c3CC(C)(C)CN1C(=O)C2Oc1ccccc1 (configuration not stated)"
measurement_type = "TGI"
measured_result = "> 100 µM"

[[record]]
compound = "CCOC1CN=C(Nc2cccc3ccccc23)S1 (configuration not stated)"
measurement_type = "TGI"
measured_result = "> 10 µM"

[[record]]
compound = "CC[C@H](C)[C@H](NC(=O)[C@H]1CCCCN1C)C(=O)N(C)[C@H](C[C@@H](OC(C)=O)c1cccc(C(=O)N[C@@H](Cc2ccccc2)C[C@H](C)C(=O)OC)n1)C(C)C"
measurement_type = "TGI"
measured_result = "> 25 µM"

[[record]]
compound = "CC(=O)OC[C@H]1CN(OC(C)=O)C[C@@H](n2cc(C)c(=O)[nH]c2=O)O1"
measurement_type = "TGI"
measured_result = "> 100 µM"

[[record]]
compound = "COC(=O)c1c([N+](=O)[O-])ncn1[C@H]1OC[C@@H](OC(C)=O)[C@@H](OC(C)=O)[C@@H]1OC(C)=O"
measurement_type = "TGI"
measured_result = "> 100 µM"

[[record]]
compound = "CCOc1cc(C2CC(c3ccc(NS(=O)(=O)c4cc([N+](=O)[O-])ccc4C)cc3)=NN2S(=O)(=O)c2cc([N+](=O)[O-])ccc2C)ccc1O (configuration not stated)"
measurement_type = "TGI"
measured_result = "> 100 µM"

[[record]]
compound = "Cc1ccc(O)c(C(c2cccc(C(c3cc(C)ccc3O)c3cc(C)ccc3O)c2)c2cc(C)ccc2O)c1"
measurement_type = "TGI"
measured_result = "3.18 µM"

[[record]]
compound = "COc1ccc(S(=O)(=O)N2C(=O)CCC2C(=O)NC(N)=O)cc1 (configuration not stated)"
measurement_type = "TGI"
measured_result = "> 100 µM"

[[record]]
compound = "C=CC(=O)Nc1ccc(NC(=O)C=C)c2c1C(=O)c1ccccc1C2=O"
measurement_type = "TGI"
measured_result = "57.4 µM"

